# reported Kb; entries follow
# Measured target: human alpha2A receptors (Homo sapiens)
# Sequence (P08913 1-465): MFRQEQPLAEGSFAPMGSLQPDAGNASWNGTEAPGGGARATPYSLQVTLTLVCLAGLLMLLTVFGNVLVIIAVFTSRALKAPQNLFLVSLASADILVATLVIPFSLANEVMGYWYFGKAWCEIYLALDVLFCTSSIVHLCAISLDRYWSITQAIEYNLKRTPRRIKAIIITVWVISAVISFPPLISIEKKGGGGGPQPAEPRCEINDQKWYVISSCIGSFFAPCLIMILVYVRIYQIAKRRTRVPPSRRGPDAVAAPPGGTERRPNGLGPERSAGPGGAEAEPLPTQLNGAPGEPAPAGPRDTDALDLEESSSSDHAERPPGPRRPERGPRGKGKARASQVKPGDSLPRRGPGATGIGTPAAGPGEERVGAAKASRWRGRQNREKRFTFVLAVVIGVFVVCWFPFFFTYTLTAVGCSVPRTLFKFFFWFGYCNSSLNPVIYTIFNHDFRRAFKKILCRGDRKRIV
# Experiment: cell-based
Where a name gives a salt, the structure may show the parent alone.

Looking up Cc1nc2ccc(Cl)cc2n1[C@H]1CCCN(C[C@H]2COc3ccccc3O2)C1 , I see its Kb listed as 0.498 µM

Form: molecule = CN1C(=O)C(=O)N([C@H]2CCCN(C[C@H]3COc4ccccc4O3)C2)C1=O ; Kb = > 0.449 µM

Record c1ccc2c(c1)OC[C@H](CN1CCC[C@H](n3cnc4cncnc43)C1)O2 . Reported Kb: > 0.449 µM

So, O=C1CN(C2CC2)C(=O)N1[C@H]1CCCN(C[C@H]2COc3ccccc3O2)C1 ? Its Kb was > 0.449 µM

Input COc1ccc2c(c1OC)C(=O)N([C@H]1CCCN(C[C@H]3COc4ccccc4O3)C1)C2=O [example 66, hydrochloride] . Output Kb: > 0.449 µM

Recorded Kb (molecule CC(C)(C)N1C(=O)C(=O)N([C@H]2CCCN(C[C@H]3COc4ccccc4O3)C2)C1=O ): > 0.449 µM

// field: Kb; key: O=C1NC2(CC2)C(=O)N1[C@H]1CCCN(C[C@H]2COc3ccccc3O2)C1 ; value = 0.062 µM

In plain terms, O=C1C(=O)N([C@H]2CCCN(C[C@H]3COc4ccccc4O3)C2)C(=O)N1Cc1ccccn1 has a documented Kb of > 0.449 µM

Looking up O=C1CN(CC2CC2)C(=O)N1[C@H]1CCCN(C[C@H]2COc3ccccc3O2)C1 , I see its Kb listed as > 0.449 µM

====

// Kb lookup, one value per entry
# Measured target: human alpha2C receptors (Homo sapiens)
# Experiment: Determination of alpha2C antagonistic activity in vitro (FLIPR calcium assay)
# Assay conditions: Alpha 2C Adrenaline Kb, Kb calculated from IC50 with the Cheng-Prusoff equation; adrenaline as agonist; CHO cells, human alpha2C
Structures can show the parent of a compound that is named as a salt.

- O=C1C2=C(CCCC2)C(=O)N1[C@H]1CCCN(C[C@H]2COc3ccccc3O2)C1 [example 94, hydrochloride]: < 10 pM
- Cc1ccc2c(c1)CN([C@H]1CCCN(C[C@H]3COc4ccccc4O3)C1)C2=O [example 59, formate]: < 1 pM

Field Kb (entry O=c1[nH]c2c(F)cccc2n1[C@H]1CCCN(C[C@H]2COc3ccccc3O2)C1 [example 154] ) reads < 10 pM

====

Form field: pIC50 (one value per entry).
# Measured target: human alpha2A receptors (Homo sapiens, UniProt P08913)
# Experiment: cell-based
pIC50: −log10 of the molar value.

• Fc1ccc2c(c1)ncn2[C@H]1CCCN(C[C@H]2COc3ccccc3O2)C1 [example 87] = < 5.00
• O=C1c2ccc(Cl)cc2CN1[C@H]1CCCN(C[C@H]2COc3ccccc3O2)C1 [example 60] = < 5.00
• Cc1nc2c(F)cc(F)cc2n1[C@H]1CCCN(C[C@H]2COc3ccccc3O2)C1 [example 27] = < 5.00
• O=c1[nH]c2ccccc2c(=O)n1[C@H]1CCCN(C[C@H]2COc3ccccc3O2)C1 [example 72] = < 5.00
• O=C1C2CC2C(=O)N1[C@H]1CCCN(C[C@H]2COc3ccccc3O2)C1 (some centres unmarked) [example 95] = 5.03
• CC(C)N1C(=O)N([C@H]2CCCN(C[C@H]3COc4ccccc4O3)C2)C[C@H]1c1ccccc1 [example 6] = 5.01
• O=C1C(=O)N([C@H]2CCCN(C[C@H]3COc4ccccc4O3)C2)C(=O)N1Cc1ccncc1 [example 140] = < 5.00
• CC(C)CN1CC(=O)N([C@H]2CCCN(C[C@H]3COc4ccccc4O3)C2)C1=O [example 107] = < 5.00
• CC1CCC(=O)N1[C@H]1CCCN(C[C@H]2COc3ccccc3O2)C1 (some centres unmarked) [example 30] = < 6.00
• Cc1nc2ccc(F)cc2n1[C@H]1CCCN(C[C@H]2COc3ccccc3O2)C1 [example 83] = < 5.00

Now for a further compound.
According to the records, this compound O=C1c2ccncc2CN1[C@H]1CCCN(C[C@H]2COc3ccccc3O2)C1 [example 76] displays pIC50 of < 5.00

====

# Measured target: human alpha2C receptors (Homo sapiens, UniProt P18825)
# Sequence (P18825 1-462): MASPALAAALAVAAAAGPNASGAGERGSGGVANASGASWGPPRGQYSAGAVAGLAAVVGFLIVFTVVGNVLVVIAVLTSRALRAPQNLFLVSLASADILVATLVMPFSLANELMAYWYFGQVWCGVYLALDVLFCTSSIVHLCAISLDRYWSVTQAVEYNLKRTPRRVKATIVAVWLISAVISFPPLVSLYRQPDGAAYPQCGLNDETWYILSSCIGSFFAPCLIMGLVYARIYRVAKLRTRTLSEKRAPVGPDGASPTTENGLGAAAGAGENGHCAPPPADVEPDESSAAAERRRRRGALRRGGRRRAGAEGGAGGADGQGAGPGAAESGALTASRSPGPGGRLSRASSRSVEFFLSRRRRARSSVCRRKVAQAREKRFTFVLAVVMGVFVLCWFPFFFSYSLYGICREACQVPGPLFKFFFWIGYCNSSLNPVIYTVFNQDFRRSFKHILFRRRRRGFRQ
# Experiment: Determination of alpha2C antagonistic activity in vitro (FLIPR calcium assay)
Counter-ions that a name gives are not always drawn.
Experimental readout: IC50 (nM)

Some entries whose results are on file:
- O=C1c2cnccc2CN1[C@H]1CCCN(C[C@H]2COc3ccccc3O2)C1 [example 11]: 127
- CC(=O)NCC1CN([C@H]2CCCN(C[C@H]3COc4ccccc4O3)C2)C(=O)O1 (stereo partly drawn) [example 20]: 6.91
- CCN1C(=O)CC(=O)N([C@H]2CCCN(C[C@H]3COc4ccccc4O3)C2)C1=O [example 96]: 15.1
- CN1C(=O)N([C@H]2CCCN(C[C@H]3COc4ccccc4O3)C2)C(=O)C1(C)C [example 111]: 0.87

A = CC1=C(c2ccccc2)C(=O)N([C@H]2CCCN(C[C@H]3COc4ccccc4O3)C2)C1 [example 42]
B = CC1CCN([C@H]2CCCN(C[C@H]3COc4ccccc4O3)C2)C1=O (single isomer, unassigned; diastereomer 2) [example 99]
C = O=C1C(=O)N([C@H]2CCCN(C[C@H]3COc4ccccc4O3)C2)C(=O)N1C1CCNCC1 [example 137, dihydrochloride]
List by increasing IC50. // format: requested-order list of labels B, C, A

====

# Measured target: human alpha2A receptors (Homo sapiens)
# Experiment: cell-based
pIC50: −log10 of the molar value.
pIC50 values for the compounds below.

Consider the reported pIC50 for these compounds:
- C[C@H]1NC(=O)N([C@H]2CCCN(C[C@H]3COc4ccccc4O3)C2)C1=O: < 5.00
- CC(C)N1CC(=O)N([C@H]2CCCN(C[C@H]3COc4ccccc4O3)C2)C1=O: < 5.00
- O=S1(=O)Cc2ccccc2N1[C@H]1CCCN(C[C@H]2COc3ccccc3O2)C1: 6.27

Measured pIC50 (human alpha2A receptors (Homo sapiens)), entry CC(=O)NCc1ccc2c(c1)CN([C@H]1CCCN(C[C@H]3COc4ccccc4O3)C1)C2=O : < 5.00

For CC(C)CN1C(=O)C(=O)N([C@H]2CCCN(C[C@H]3COc4ccccc4O3)C2)C1=O on human alpha2A receptors (Homo sapiens), measured pIC50 was < 5.00

====

# Measured target: human alpha2C receptors (Homo sapiens)
# Experiment: Determination of alpha2C antagonistic activity in vitro (FLIPR calcium assay)
# Assay conditions: Alpha 2C Adrenaline Kb, Kb calculated from IC50 with the Cheng-Prusoff equation; adrenaline as agonist; CHO cells, human alpha2C
Experimental readout: Kb

Recorded result, Clc1ccc2c(c1)ncn2[C@H]1CCCN(C[C@H]2COc3ccccc3O2)C1 [example 91] , Kb: < 0.01 nM

Value of measured Kb for the entry Cc1nc2ccccc2n1[C@H]1CCCN(C[C@H]2COc3ccccc3O2)C1 [example 150] : < 0.01 nM

Sample O=C1C2CC2(c2ccccc2)C(=O)N1[C@H]1CCCN(C[C@H]2COc3ccccc3O2)C1 (stereo partly shown) [example 37] ; Kb observed: < 0.001 nM

For reference, reported Kb for CCC1(c2ccccc2)C(=O)N([C@H]2CCCN(C[C@H]3COc4ccccc4O3)C2)C(=O)N1C (stereo partly shown) [example 73] stands at < 0.01 nM
